# Test system: foxtail, giant
# ASSAY NAME: Test C preemergence
# Type: in vivo, Setaria faberii
# APPLIED CONDITIONS: preemergence, 62 g ai/ha; 13 to 15 days; scale 0 to 100, 0 = no effect, 100 = complete control
The entries below are paired with their reported Plant response rating, Foxtail, Giant.
READOUT NAME: Plant response rating, Foxtail, Giant

>  <MOLECULE>
CCONC(=O)c1cc(CC)n(Cc2cccc(OC(F)(F)F)c2)n1 [Compound 72]

>  <MEASURED VALUE>
80

$$$$
>  <MOLECULE>
CCONC(=O)c1cc(CC)n(Cc2ccnc(C(F)(F)F)c2)n1 [Compound 77]

>  <MEASURED VALUE>
85

$$$$
>  <MOLECULE>
CCc1cc(C(=O)NOC(C)C)nn1Cc1cccc(OC(F)(F)F)c1 [Compound 70]

>  <MEASURED VALUE>
75

$$$$
>  <MOLECULE>
CCCNC(=O)c1cc(CC)n(Cc2ccnc(C(F)(F)F)c2)n1 [Compound 75]

>  <MEASURED VALUE>
100

$$$$

* * *

Recorded Plant response rating, Wheat, one value per entry.
# Tested on: wheat
# ASSAY NAME: Test C postemergence
# Assay type: in vivo, Triticum aestivum
# APPLIED CONDITIONS: postemergence, 250 g ai/ha; scale 0 to 100 (0 no effect, 100 complete control)
# Description: […]

>  <SMILES INPUT>
CCc1cc(C(=O)NCC(F)(F)F)nn1Cc1cccc(OC(F)(F)F)c1

>  <Plant response rating, Wheat>
25

$$$$
>  <SMILES INPUT>
CCCc1cc(C(=O)NC(C)C)nn1Cc1cc(C(F)(F)F)nn1C

>  <Plant response rating, Wheat>
10

$$$$
>  <SMILES INPUT>
CCOc1cc(C(=O)NCC(F)(F)F)nn1Cc1ccnc(OC(F)F)c1

>  <Plant response rating, Wheat>
5

$$$$
>  <SMILES INPUT>
CCc1cc(-c2ccc(C(F)(F)F)cc2)nn1Cc1ccnc(C(F)(F)F)c1

>  <Plant response rating, Wheat>
5

$$$$
>  <SMILES INPUT>
CCCNC(=O)c1cc(CC)n(Cc2nc(C(F)(F)F)nn2C)n1

>  <Plant response rating, Wheat>
0

$$$$
>  <SMILES INPUT>
O=C(NC1CC1)c1cc(CCCl)n(Cc2ccnc(C(F)(F)F)c2)n1

>  <Plant response rating, Wheat>
10

$$$$
>  <SMILES INPUT>
CCc1cc(C(=O)NC2CC2)nn1Cc1ccnc(Br)c1

>  <Plant response rating, Wheat>
5

$$$$
>  <SMILES INPUT>
CCCNC(=O)c1cc(CC)n(Cc2cccc(OC(F)(F)F)c2)n1

>  <Plant response rating, Wheat>
20

$$$$
>  <SMILES INPUT>
CCCc1cc(C(=O)NC2CC2)nn1Cc1ccnc(OC(F)F)c1

>  <Plant response rating, Wheat>
5

$$$$
>  <SMILES INPUT>
CCONC(=O)c1cc(CC)n(Cc2ccnc(OC(F)F)c2)n1

>  <Plant response rating, Wheat>
10

$$$$
>  <SMILES INPUT>
CCCNC(=O)c1cc(OCC)n(Cc2ccnc(C(F)(F)F)c2)n1

>  <Plant response rating, Wheat>
15

$$$$
>  <SMILES INPUT>
CCCNC(=O)c1cc(CCF)n(Cc2ccnc(C(F)(F)F)c2)n1

>  <Plant response rating, Wheat>
20

$$$$
>  <SMILES INPUT>
CCc1cc(C(=O)NOC(C)C)nn1Cc1cccc(OC(F)(F)F)c1

>  <Plant response rating, Wheat>
25

$$$$

* * *

Entries annotated with measured Plant response rating, Ryegrass, Italian
# System: ryegrass, Italian
# ASSAY NAME: Test C preemergence
# Type: in vivo, Lolium multiflorum
# APPLIED CONDITIONS: preemergence, 125 g ai/ha; 13 to 15 days; scale 0 to 100, 0 = no effect, 100 = complete control

>  <SMILES INPUT>
CCCc1cc(C(=O)NOC(C)C)nn1Cc1cc(C(F)(F)F)nn1C

>  <TARGET OF ASSAY>
ryegrass, Italian

>  <Plant response rating, Ryegrass, Italian>
90

$$$$
>  <SMILES INPUT>
CCNC(=O)c1cc(CC)n(Cc2cc(C(F)(F)F)nn2C)n1

>  <TARGET OF ASSAY>
ryegrass, Italian

>  <Plant response rating, Ryegrass, Italian>
50

$$$$
>  <SMILES INPUT>
O=C(NC1CC1)c1cc(CCF)n(Cc2ccnc(C(F)(F)F)c2)n1

>  <TARGET OF ASSAY>
ryegrass, Italian

>  <Plant response rating, Ryegrass, Italian>
70

$$$$
>  <SMILES INPUT>
CCOc1cc(C(=O)NOC(C)C)nn1Cc1ccnc(C(F)(F)F)c1

>  <TARGET OF ASSAY>
ryegrass, Italian

>  <Plant response rating, Ryegrass, Italian>
90

$$$$

* * *

# Test system: wheat
# ASSAY NAME: Test C preemergence
# Assay type: in vivo, Triticum aestivum
# APPLIED CONDITIONS: Preemergence, 250 g ai/ha
READOUT NAME: Plant response rating (scale of 0 to 100), Wheat

>  <COMPOUND>
CCCNC(=O)c1cc(CC)n(Cc2nc(C(F)(F)F)nn2C)n1 [Compound 109]

>  <TARGET OF ASSAY>
wheat

>  <MEASURED VALUE>
85

$$$$
>  <COMPOUND>
CCc1cc(C(=O)NOC(C)C)nn1Cc1cccc(OC(F)(F)F)c1 [Compound 70]

>  <TARGET OF ASSAY>
wheat

>  <MEASURED VALUE>
75

$$$$
>  <COMPOUND>
CCOc1cc(C(=O)NCC(F)(F)F)nn1Cc1ccnc(OC(F)F)c1 [Compound 128]

>  <TARGET OF ASSAY>
wheat

>  <MEASURED VALUE>
85

$$$$
>  <COMPOUND>
CCc1cc(C(=O)NCC(F)(F)F)nn1Cc1cc(C(F)(F)F)nn1C [Compound 108]

>  <TARGET OF ASSAY>
wheat

>  <MEASURED VALUE>
70

$$$$

* * *

# Tested on: waterhemp
# ASSAY NAME: Test C postemergence
# Type: in vivo, Amaranthus rudis
# APPLIED CONDITIONS: postemergence, 250 g ai/ha; scale 0 to 100 (0 no effect, 100 complete control)
READOUT NAME: Plant response rating, Waterhemp

>  <SMILES INPUT>
CCOc1cc(C(=O)NCC(F)(F)F)nn1Cc1ccnc(OC(F)F)c1

>  <READOUT NAME>
Plant response rating, Waterhemp

>  <MEASURED VALUE>
95

$$$$
>  <SMILES INPUT>
CCCc1cc(C(=O)NCC(F)(F)F)nn1Cc1ccnc(OC(F)F)c1

>  <READOUT NAME>
Plant response rating, Waterhemp

>  <MEASURED VALUE>
70

$$$$
>  <SMILES INPUT>
CCCc1cc(C(=O)NC2CC2)nn1Cc1cc(C(F)(F)F)nn1C

>  <READOUT NAME>
Plant response rating, Waterhemp

>  <MEASURED VALUE>
90

$$$$
>  <SMILES INPUT>
CCONC(=O)c1cc(CC)n(Cc2ccnc(OC(F)F)c2)n1

>  <READOUT NAME>
Plant response rating, Waterhemp

>  <MEASURED VALUE>
80

$$$$
>  <SMILES INPUT>
CCc1cc(C(=O)NCC(F)(F)F)nn1Cc1ccnc(SC(F)(F)F)c1

>  <READOUT NAME>
Plant response rating, Waterhemp

>  <MEASURED VALUE>
70

$$$$
>  <SMILES INPUT>
CCc1cc(C(=O)NOC(C)C)nn1Cc1ccnc(OC(F)F)c1

>  <READOUT NAME>
Plant response rating, Waterhemp

>  <MEASURED VALUE>
90

$$$$

* * *

The following compounds are listed with their measured Plant response rating, Wheat, Winter values.
# System: wheat, winter
# ASSAY NAME: Test D preemergence
# Assay type: in vivo, Triticum aestivum
# APPLIED CONDITIONS: Preemergence, 125 g ai/ha; scale 0 to 100
READOUT NAME: Plant response rating, Wheat, Winter

>  <COMPOUND>
CCc1cc(C(=O)NCC(F)(F)F)nn1Cc1ccnc(SC(F)(F)F)c1 [Compound 214]

>  <READOUT NAME>
Plant response rating, Wheat, Winter

>  <MEASURED VALUE>
55

$$$$
>  <COMPOUND>
CCc1cc(C(=O)NOC(C)C)nn1Cc1cccc(OC(F)(F)F)c1 [Compound 70]

>  <READOUT NAME>
Plant response rating, Wheat, Winter

>  <MEASURED VALUE>
0

$$$$
>  <COMPOUND>
O=C(NC1CC1)c1cc(CCF)n(Cc2ccnc(C(F)(F)F)c2)n1 [Compound 176]

>  <READOUT NAME>
Plant response rating, Wheat, Winter

>  <MEASURED VALUE>
5

$$$$
>  <COMPOUND>
CCCc1cc(C(=O)NC(C)C)nn1Cc1cc(C(F)(F)F)nn1C [Compound 201]

>  <READOUT NAME>
Plant response rating, Wheat, Winter

>  <MEASURED VALUE>
70

$$$$

Values from patent US20150105252A1
